Experiment: chemical genetic growth profiling, strain panel (AID 1159580);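 also: tested at 20 µM; growth read once vehicle control cultures reached saturation at 30 °C; 1 = growth at the plate median or of vehicle wells; lower values mean less growth of the strain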
Conditions: S. cerevisiae deletion strains, growth OD, locus YHR027C, strain rpn1, stronger effect = lower value
Screen size: about 5,500 compounds; about 2,000 (36%) were called active. Inconclusive results (about 18%) are left out. This is one part of the list.
Items are presented alongside their recorded normalized growth.
Number only, no unit.

C[C@H](CCC(=O)O)[C@H]1CCC2C3C(CC[C@@]21C)[C@@]1(C)CC[C@@H](O)C[C@H]1C[C@@H]3O (stereo partly specified)	1
O=[N+]([O-])c1cccc2cn[nH]c12	0.994
CC[C@H](CCC(C)[C@H]1CCC2C3CCC4C[C@@H](O)CC[C@]4(C)C3CC[C@@]21C)C(C)C (stereo partly specified)	0.982
CN(C)CCC(c1ccc(Br)cc1)c1ccccn1 (stereo unspecified)	0.952
CC1=C2[C@H]3OC(=O)[C@@H](C)[C@@H]3CC[C@@]2(C)C=CC1=O	0.986

QUERY: Output measured normalized growth for this item: C[C@H](N)[C@H](O)c1cccc(O)c1
RESULT: 1.02

QUERY: In one line, give reported normalized growth of the entry CC(CCC(=O)O)[C@H]1CCC2C3CC[C@@H]4C[C@H](O)CC[C@]4(C)C3C[C@H](O)[C@@]21C (stereo partly specified) .
RESULT: 1

====

Below is a list of entries, each paired with its recorded normalized growth value.
Assay: chemical genetic growth profiling, strain panel (AID 1159580)
Conditions: S. cerevisiae deletion strains, growth OD, locus YMR078C, strain ctf18, stronger effect = lower value
Screen size: about 5,500 compounds; about 2,000 (36%) were called active. Roughly 18% stayed inconclusive and do not appear here. Some of the results follow.

In the examples that follow, each entry is paired with its recorded normalized growth.
C=C[C@H]1CN2CC[C@H]1C[C@@H]2[C@H](O)c1ccnc2ccccc12	0.983 (inactive)
Nc1ccn(C2O[C@H](CO)[C@@H](O)[C@H]2O)c(=O)n1 (stereo partly specified)	1.02 (inactive)
CC(CCC(=O)O)[C@H]1CCC2C3C[C@H](O)[C@@H]4C[C@H](O)CC[C@]4(C)C3CC[C@@]21C (stereo partly specified)	1.03 (inactive)
COC(=O)CCC(C)[C@H]1CCC2C3C(C[C@H](O)[C@@]21C)[C@@]1(C)CC[C@@H](O)C[C@H]1C[C@H]3O (stereo partly specified)	1.04 (inactive)
CC(CCC(=O)O)[C@H]1CCC2C3CC[C@@H]4CCCC[C@]4(C)C3CC[C@@]21C (stereo partly specified)	1 (inactive)

Turning now to a further molecule:
QUERY: Determine its reported normalized growth: C[C@H](CCC(=O)O)[C@H]1CCC2C3C(CC[C@@]21C)[C@@]1(C)CC[C@@H](O)C[C@H]1C[C@@H]3O (stereo partly specified)
RESULT: 0.972 (inactive)

====

Experiment: chemical genetic growth profiling, strain panel (AID 1159580)
Settings: S. cerevisiae deletion strains, growth OD, locus YPL051W, strain arl3, stronger effect = lower value
The whole screen tested about 5,500 compounds, of which about 2,000 (36%) were called active. Inconclusive results (about 18%) are left out. The list shows a part of the results.
measurement_kind: normalized growth
// response body must contain only the number

C[C@H](CCC(=O)O)[C@H]1CCC2C3C(CC[C@@]21C)[C@@]1(C)CC[C@@H](O)C[C@H]1C[C@H]3O (some centres undefined)	0.978
CC(CCC(=O)O)[C@H]1CCC2C3CC[C@@H]4C[C@H](O)CC[C@]4(C)C3C[C@H](O)[C@@]21C (some centres undefined)	0.958
CCOC(=O)[C@H](CCc1ccccc1)N[C@@H](C)C(=O)N1Cc2ccccc2C[C@H]1C(=O)O	0.995

QUERY: Answer with the recorded normalized growth of C[C@]12C=CC(=O)C=C1CCC1C3C[C@@H](O)[C@](O)(C(=O)CO)[C@@]3(C)C[C@H](O)[C@@]12F (some centres undefined) only.
RESULT: 0.967

====

Experiment: chemical genetic growth profiling, strain panel (AID 1159580)
Details: S. cerevisiae deletion strains, growth OD, locus YOR136W, strain idh2, stronger effect = lower value
Among all 5,500 compounds or so, about 2,000 (36%) were called active. Not shown: some 18% with an inconclusive outcome. Some of the results follow.
normalized growth values, listed per item
Give the value as a plain number.

For orientation, consider the following solved cases.
CNC(=O)Oc1ccc2c(c1)[C@]1(C)CCN(C)[C@@H]1N2C	1.02
NC(N)=O	0.993
CC(=O)O[C@H]1CC[C@]2(C)C3C(=O)[C@@H](OC(C)=O)[C@@]4(C)C(C[C@@H]5O[C@]6(CCC(C)CO6)[C@@H](C)[C@@H]54)C3CC[C@H]2C1 (stereo partly specified)	0.988
CC(=O)O[C@H]1CC[C@]2(C)C3=CC(=O)[C@@]4(C)C(C[C@@H]5OC6(OCC(C)CC6Br)[C@@H](C)[C@@H]54)C3CC[C@H]2C1 (stereo partly specified)	0.991
CSc1ccc2c(c1)N(CCC1CCCCN1C)c1ccccc1S2 (stereo unspecified)	0.139
CC(=O)Nc1ccccc1	0.988

QUERY: Return normalized growth for the following compound: COc1cc(S(C)=O)ccc1-c1nc2ncccc2[nH]1 (stereo unspecified)
RESULT: 0.986

QUERY: Provide one value: measured normalized growth of CC1CCC2(OC1)OC1CC3C4CCC5C[C@@H](O)CCC5(C)C4=CCC3(C)C1[C@@H]2C (stereo partly specified)
RESULT: 0.983

QUERY: Fill in normalized growth for record NNCCc1ccccc1
RESULT: 0.973

QUERY: State its normalized growth: N#C/C(=C\c1cccc(O)c1)C(=O)O
RESULT: 1.01

QUERY: Name the recorded normalized growth of the item O=C(Nc1ccccc1)c1ccccc1O in your answer.
RESULT: 0.983

====

Test: chemical genetic growth profiling, strain panel (AID 1159580);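 also: tested at 20 µM; growth read once vehicle control cultures reached saturation at 30 °C; 1 = growth at the plate median or of vehicle wells; lower values mean less growth of the strain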
Details: S. cerevisiae deletion strains, growth OD, locus YJR066W, strain TOR1 (second series)
Screen size: about 5,500 compounds; about 2,000 (36%) were called active. About 18% were inconclusive and are not listed. Cut-off read from the data, not from the text of the source: active = normalized growth mostly below about 0.91 (no sharp cut-off); inconclusive = no clear call, values can overlap the other calls; inactive = mostly above about 0.92. Some of the results follow.
Lab note: assign the record to one of active, inactive

Please review the entries below; each comes with its answer.
CSC(=NNc1ccccc1)NC(=O)c1c(Cl)cccc1Cl	inactive
CNC(=O)n1nc(C)c(Cc2csc3ccc(Cl)cc23)c1C	inactive
NNC(=O)c1csc(Cc2c(Cl)sc3ccc(Cl)cc23)n1	inactive
CC(C)(C)C(=O)/C(C#N)=C/c1c(Cl)cccc1Cl	active
O=C1CSC(c2ccc(C(F)(F)F)cc2)N1c1ccc(C(F)(F)F)cc1 (stereo unspecified)	inactive

QUERY: Which outcome was assigned to COc1ccc(C(=O)NCc2csc3ccc(Cl)cc23)cc1OC in this test?
RESULT: inactive

====

Experiment: chemical genetic growth profiling, strain panel (AID 1159580);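 also: tested at 20 µM; growth read once vehicle control cultures reached saturation at 30 °C; 1 = growth at the plate median or of vehicle wells; lower values mean less growth of the strain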
Settings: S. cerevisiae deletion strains, growth OD, locus YPL240C, strain hsp82, stronger effect = lower value
Screen size: about 5,500 compounds; about 2,000 (36%) were called active. Another 18% or so got no clear call; they are omitted. The list shows a part of the results.
measurement_kind: normalized growth
Just the number, please.

CC(=O)N=c1sc(S(N)(=O)=O)nn1C	1.01

QUERY: Return reported normalized growth. Input molecule: CC(=O)Nc1nnc(S(N)(=O)=O)s1
RESULT: 1

QUERY: Give the reported normalized growth for this molecule. O=C(O)CCCOc1ccc(Cl)cc1Cl
RESULT: 0.937

QUERY: Give reported normalized growth value for CN(C)CCOC(=O)C(c1ccccc1)C1(O)CCCC1 (configuration not stated)
RESULT: 1.01

QUERY: Retrieve normalized growth measured for CN(C)CCOC(=O)COc1ccc(Cl)cc1 and print it.
RESULT: 0.957

QUERY: In one line, give reported normalized growth of the entry CN(C)N=Nc1nc[nH]c1C(N)=O .
RESULT: 1

QUERY: Indicate its recorded normalized growth; the molecule in question is C[C@H](CCC(=O)O)[C@H]1CCC2C3C(CC[C@@]21C)[C@@]1(C)CC[C@@H](O)C[C@H]1C[C@H]3O (some centres not stated)
RESULT: 1.01

====

Test: chemical genetic growth profiling, strain panel (AID 1159580);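 also: tested at 20 µM; growth read once vehicle control cultures reached saturation at 30 °C; 1 = growth at the plate median or of vehicle wells; lower values mean less growth of the strain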
Conditions: S. cerevisiae deletion strains, growth OD, locus YHR079C, strain IRE1, stronger effect = lower value
About 2,000 (36%) of roughly 5,500 compounds were called active. About 18% were inconclusive and are not listed. Some of the results follow.
measurement_kind: normalized growth
Form rule: numeric answer, no unit written next to it.

Before answering, review these 4 worked examples.
O=[N+]([O-])c1cccc2c(Br)[nH]nc12	0.937
CO[C@]12C[C@@H](COC(=O)c3cncc(Br)c3)CN(C)[C@@H]1Cc1cn(C)c3cccc2c13	0.957
S=C(NNc1ccccc1)Nc1cc(Cl)ccc1Cl	0.909
O=c1cc(-c2ccccc2)oc2c(O)c(O)ccc12	1.05

QUERY: Dear colleague, please send me the reported normalized growth for C[C@H](CCC(=O)O)[C@H]1CCC2C3C(CC[C@@]21C)[C@@]1(C)CC[C@@H](O)C[C@H]1C[C@H]3O (stereo partly specified) when you can.
RESULT: 0.87

QUERY: Please look at this molecule and report its normalized growth: O=c1cc(-c2ccccc2)oc2cc(O)c(O)cc12
RESULT: 0.972

QUERY: Fill in reported normalized growth for this entry: O=c1cc(-c2ccccc2)oc2cc(O)cc(O)c12
RESULT: 0.862

Values were extracted from PubChem BioAssay AID1159580.
